# key: entry, value: IC50
# Study system: muscarinic acetylcholine receptors
# Assay overview: 3H-QNB (quinuclidinyl benzilate) displacement, rat cerebral membranes
# Assay type: binding
# Stated conditions: 60 pM 3H-QNB; rat cerebral membranes; no atropine; read-out: Displacement of Radiolabeled Liqands IC50 Quinuc Benz
Quantity kind: IC50

| Compound | Result |
| --- | --- |
| CN1CCC[C@H]1COC(=O)CCc1ccc(O)cc1 | > 10 µM |
| CN1CCC[C@H]1COC(=O)CCc1ccccc1 | 1.12 µM |
| COc1ccc(SCCC2CCCN2C)cc1F (stereo not shown) | 2.9 µM |
| CN1CCCC1CCSc1ccc(O)cc1Cl (stereo not shown) | 3.3 µM |
